# PROTOCOL CONDITIONS: Liquid; Ebulliometric method (Recirculating still)
Assign class by Normal boiling temperature: not lower than 100 °C means met; lower than 100 °C means not met.

Examples with answers:
{"STRUCTURE": "CCC(C)C", "CAT": "not met"}
{"STRUCTURE": "CC(C)=C(C)C", "CAT": "not met"}
{"STRUCTURE": "Cc1ccccc1", "CAT": "met"}

Now consider the entry below.
## Input Does the compound `Cc1ccsc1` have recorded Normal boiling temperature that is 100 °C or more?
## Output met
